Test system: OVCAR-8 ovarian
Assay comment: NCI tumour cell line growth inhibition, 48 h
Observable: TGI

O=c1[nH]nc(Cc2ccccc2)n1/N=C/c1ccc(/C=N/n2c(Cc3ccccc3)n[nH]c2=O)cc1 :: > 100 µM
CC(C)Oc1c(N(Cc2ccccc2)c2ccccc2C2SCCCS2)c(=O)c1=O :: > 60.7 µM
COc1cc(-c2nc3nc(N4CCN(C)CC4)ccc3[nH]2)c(OC)c2[nH]c(CO)nc12 :: > 100 µM
CCN(Cc1cccnc1)c1ccc(CO)c(Cl)c1 :: > 100 µM
CC(=O)Nc1nc2ncc(C=O)nc2c(=O)[nH]1 :: > 100 µM
Cc1ccc(S(=O)(=O)NNC(=O)Nc2ccc(Cl)cc2)cc1 :: > 100 µM
CN(C)C(=S)/N=C1\SC(=Nc2ccccc2)C(=Nc2ccccc2)N1c1ccc([N+](=O)[O-])cc1 :: > 100 µM
O=C(c1cc(Cl)ccc1Cl)N1CCN(c2ccc(Cl)c(Cl)c2)CC1 :: 45.5 µM
OC1c2c(ccc3c2CCC3)CC12Cc1ccccc1C2 (stereo not drawn) :: 33.7 µM
S=C1C(=Nc2ccccc2)N(C2CCCCC2)C(=NC2CCCCC2)N1c1ccccc1 :: > 100 µM
NC1CCCCC1 :: > 562 µM
COC1C(O)CC(OC2CC(OC3CC(O[C@@H]4C(=O)c5c(cc6cc(OC7CC(OC8CC(O)C(O)C(C)O8)C(O)C(C)O7)c(C)c(O)c6c5O)CC4[C@H](OC)C(=O)C(C)=O)OC(C)C3O)OC(C)C2O)OC1C (stereo partly drawn) :: > 33.3 µM
CN(C)c1ccc(C(C#N)NNC(=O)Cc2ccccc2)cc1 (stereo not drawn) :: > 100 µM
CC(C)=Cc1cc2c(cc1O)CCC1C2CC[C@@]2(C)C1CC[C@@H]2O (stereo partly drawn) :: 40.7 µM
CC(C)(C)OC/C=C(\Br)CO :: > 100 µM
COc1cc(C(=O)N2CCN(c3ccccn3)CC2)c(N)cc1OCc1ccccc1 :: > 100 µM
CCc1ccccc1NC(=O)C1=C(C)NC(C)=C(C(=O)Nc2ccccc2CC)C1c1cccc([N+](=O)[O-])c1 :: > 100 µM
CC[C@]1(O)CC2CN(CCCc3c([nH]c4ccccc34)[C@@](C(=O)OC)(c3cc4c(cc3OC)N(C)C3C45CCN4CC=C[C@](CC)(C45)C(OC(C)=O)[C@@]3(O)C(=O)OC)C2)C1 (stereo partly drawn) :: > 10 µM

* * *

Tested on: HCT-116 colon
Assay comment: NCI tumour cell line growth inhibition, 48 h
Quick reference: TGI of the listed items.
Observable: TGI

c1ccc(CSCCNCCN(CCNCCSCc2ccccc2)CCNCCSCc2ccccc2)cc1 :: 0.34 µM
Cc1cc(S(=O)(=O)O)ccc1N=Nc1c(O)ccc2ccccc12 :: > 100 µM
O=C(CC(C(=O)c1ccc(F)cc1)c1ccsc1)c1cccs1 (stereo not drawn) :: > 100 µM
O=CC12c3ccccc3C(c3ccccc31)C1C(=O)NC(=O)C12 (stereo not drawn) :: > 100 µM
CN(C)c1ccc(C(C#N)NNC(=O)Cc2ccccc2)cc1 (stereo not drawn) :: > 100 µM
CC(C)=Cc1cc2c(cc1O)CCC1C2CC[C@@]2(C)C1CC[C@@H]2O (stereo partly drawn) :: 23.4 µM
CCCCN(CCCC)CC(C(=O)Nc1ccccc1)/C(C)=N\NC(=O)c1ccncc1 (stereo not drawn) :: > 100 µM
COc1cc(Nc2c(C#N)[n+]([O-])c3ccccc3[n+]2[O-])cc(OC)c1OC :: 29.9 µM
CN(C)CCOc1ccc2[nH]c(C(=O)N3CC(CCl)c4c3cc(NC(=O)OCc3ccc([N+](=O)[O-])cc3)c3ccccc43)cc2c1 (stereo not drawn) :: 2.17 µM
COc1cc(C(=O)N2CCN(c3ccccn3)CC2)c(N)cc1OCc1ccccc1 :: > 100 µM
CC(C)=CC1CC(=O)C1(C)Sc1ccccc1 (stereo not drawn) :: > 100 µM
CN(C)CCCNC(=O)c1c(-c2cccnc2)cnc2ccccc12 :: > 100 µM
COc1ccc(/C=N/Nc2nc(-c3cc4oc(=O)n(C)c4cc3Cl)cs2)cc1OC :: > 100 µM
